molecular target: B-cell receptor CD22 (Homo sapiens) (UniProt P20273); experiment: Binding affinity to recombinant human Fc-fused siglec-2 by fluorescence based glycan microarray analysis
Sequence (P20273 whole entry, the tested form may be a part): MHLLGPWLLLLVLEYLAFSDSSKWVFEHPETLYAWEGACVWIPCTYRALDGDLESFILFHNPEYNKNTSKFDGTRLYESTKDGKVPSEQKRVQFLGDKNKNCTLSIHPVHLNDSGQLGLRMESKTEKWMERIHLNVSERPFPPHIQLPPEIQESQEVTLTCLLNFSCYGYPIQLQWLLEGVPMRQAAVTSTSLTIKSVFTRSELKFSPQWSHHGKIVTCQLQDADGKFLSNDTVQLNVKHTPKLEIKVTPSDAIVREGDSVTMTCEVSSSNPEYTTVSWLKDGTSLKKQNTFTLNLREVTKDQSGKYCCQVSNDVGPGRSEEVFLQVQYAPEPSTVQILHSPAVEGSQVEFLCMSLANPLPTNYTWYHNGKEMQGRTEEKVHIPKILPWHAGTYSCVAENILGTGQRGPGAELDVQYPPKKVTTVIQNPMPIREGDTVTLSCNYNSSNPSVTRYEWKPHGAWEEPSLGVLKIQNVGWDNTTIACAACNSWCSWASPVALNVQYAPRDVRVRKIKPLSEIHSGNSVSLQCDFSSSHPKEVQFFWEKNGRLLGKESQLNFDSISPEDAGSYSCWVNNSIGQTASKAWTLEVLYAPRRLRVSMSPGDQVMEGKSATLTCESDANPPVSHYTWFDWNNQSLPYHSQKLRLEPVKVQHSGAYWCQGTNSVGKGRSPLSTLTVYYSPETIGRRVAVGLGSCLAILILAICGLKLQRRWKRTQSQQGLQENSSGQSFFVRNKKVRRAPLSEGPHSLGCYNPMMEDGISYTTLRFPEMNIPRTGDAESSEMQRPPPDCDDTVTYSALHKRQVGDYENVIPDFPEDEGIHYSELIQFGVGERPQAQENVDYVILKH
The source made the active and inactive calls. The rule behind the calls is not given here.
Outcome codes: active, inactive

CC(=O)N[C@H]1[C@H](OCCCCCCN=[N+]=[N-])O[C@H](CO)[C@@H](O[C@@H]2O[C@H](CO)[C@H](O)[C@H](O[C@@H]3O[C@H](CO)[C@@H](O)[C@@H](O[C@@H]4O[C@H](CO[C@]5(C(=O)O)C[C@H](O)[C@@H](NC(C)=O)[C@H]([C@H](O)[C@H](O)CO)O5)[C@H](O)[C@H](O)[C@H]4O)[C@H]3NC(C)=O)[C@H]2O)[C@@H]1O :: active
CC(=O)N[C@H]1[C@H](OCCCCCCN=[N+]=[N-])O[C@H](CO)[C@@H](O[C@@H]2O[C@H](CO)[C@H](O)[C@H](O[C@@H]3O[C@H](CO)[C@@H](O)[C@@H](O[C@@H]4O[C@H](CO[C@]5(C(=O)O)C[C@H](O)[C@@H](NC(C)=O)[C@H]([C@H](O)[C@H](O)CO)O5)[C@H](O)[C@H](O[C@]5(C(=O)O)C[C@H](O)[C@@H](NC(C)=O)[C@H]([C@H](O)[C@H](O)CO)O5)[C@H]4O)[C@H]3NC(C)=O)[C@H]2O)[C@@H]1O :: inactive
CC(=O)N[C@H]1[C@H]([C@H](O)[C@H](O)CO)O[C@@](OC[C@H]2O[C@@H](O[C@H]3[C@H](O)[C@@H](O)[C@H](OCCCCCCN=[N+]=[N-])O[C@@H]3CO)[C@H](O)[C@@H](O)[C@H]2O)(C(=O)O)C[C@@H]1O :: active
CC(=O)N[C@H]1[C@H]([C@H](O)[C@H](O)CO)O[C@@](OC[C@H]2O[C@@H](O[C@H]3[C@H](O)[C@@H](O)[C@H](OCCCCCCN=[N+]=[N-])O[C@@H]3CO)[C@H](O)[C@@H](O[C@]3(C(=O)O)C[C@H](O)[C@@H](NC(C)=O)[C@H]([C@H](O)[C@H](O)CO)O3)[C@H]2O)(C(=O)O)C[C@@H]1O :: inactive

###

biological target: B-cell receptor CD22 (Homo sapiens) (UniProt P20273); assay: Binding affinity to recombinant human Fc-fused siglec-2 by fluorescence based glycan microarray analysis
Calls of active or inactive are those of the source. No cut-off for these calls is given here.
Outcome codes: 1 = active, 0 = inactive

CC(=O)N[C@H]1[C@H](OCCCCCCN=[N+]=[N-])O[C@H](CO)[C@@H](O[C@@H]2O[C@H](CO[C@]3(C(=O)O)C[C@H](O)[C@@H](NC(C)=O)[C@H]([C@H](O)[C@H](O)CO)O3)[C@H](O)[C@H](O[C@]3(C(=O)O)C[C@H](O)[C@@H](NC(C)=O)[C@H]([C@H](O)[C@H](O)CO)O3)[C@H]2O)[C@@H]1O :: 0
CC(=O)N[C@H]1[C@H](OCCCCCCN=[N+]=[N-])O[C@H](CO)[C@@H](O[C@@H]2O[C@H](CO)[C@H](O)[C@H](O[C@@H]3O[C@H](CO)[C@@H](O)[C@@H](O[C@@H]4O[C@H](CO)[C@H](O)[C@H](O[C@@H]5O[C@H](CO)[C@@H](O)[C@@H](O[C@@H]6O[C@H](CO[C@]7(C(=O)O)C[C@H](O)[C@@H](NC(C)=O)[C@H]([C@H](O)[C@H](O)CO)O7)[C@H](O)[C@H](O)[C@H]6O)[C@H]5NC(C)=O)[C@H]4O)[C@H]3NC(C)=O)[C@H]2O)[C@@H]1O :: 1
CC(=O)N[C@H]1[C@H](OCCCCCCN=[N+]=[N-])O[C@H](CO)[C@@H](O[C@@H]2O[C@H](CO[C@]3(C(=O)O)C[C@H](O)[C@@H](NC(C)=O)[C@H]([C@H](O)[C@H](O)CO)O3)[C@H](O)[C@H](O[C@@H]3O[C@H](CO)[C@@H](O)[C@H](O)[C@H]3NC(C)=O)[C@H]2O)[C@@H]1O :: 0

###

molecular target: Sialic acid-binding Ig-like lectin 14 (Homo sapiens) (UniProt Q08ET2); assay: Binding affinity to recombinant human Fc-fused siglec-14 by fluorescence based glycan microarray analysis
Sequence (Q08ET2 whole entry, the tested form may be a part): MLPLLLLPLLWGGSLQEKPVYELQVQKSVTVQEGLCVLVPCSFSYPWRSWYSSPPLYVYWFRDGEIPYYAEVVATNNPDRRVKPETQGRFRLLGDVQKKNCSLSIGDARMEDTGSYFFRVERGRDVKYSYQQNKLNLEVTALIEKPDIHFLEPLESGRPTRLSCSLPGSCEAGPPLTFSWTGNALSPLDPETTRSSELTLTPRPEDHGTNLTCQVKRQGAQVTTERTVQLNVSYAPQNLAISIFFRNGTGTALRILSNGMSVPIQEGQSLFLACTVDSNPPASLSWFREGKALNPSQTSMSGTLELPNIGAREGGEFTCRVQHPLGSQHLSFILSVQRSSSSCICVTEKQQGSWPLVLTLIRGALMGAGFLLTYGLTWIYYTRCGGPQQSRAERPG
Active and inactive are the calls of the source. No cut-off for these calls is given here.
measurement.label: Activity

CC(=O)N[C@H]1[C@H](OCCCCCCN=[N+]=[N-])O[C@H](CO)[C@@H](O[C@@H]2O[C@H](CO)[C@H](O)[C@H](O[C@]3(C(=O)O)C[C@H](O)[C@@H](NC(C)=O)[C@H]([C@H](O)[C@H](O)CO)O3)[C@H]2O)[C@@H]1O :: Active
CC(=O)N[C@H]1[C@H](OCCCCCCN=[N+]=[N-])O[C@H](CO)[C@@H](O[C@@H]2O[C@H](CO)[C@H](O)[C@H](O[C@]3(C(=O)O)C[C@H](O)[C@@H](NC(C)=O)[C@H]([C@@H](O)[C@@H](CO)O[C@]4(C(=O)O)C[C@H](O)[C@@H](NC(C)=O)[C@H]([C@H](O)[C@H](O)CO)O4)O3)[C@H]2O)[C@@H]1O :: Active

###

target: UniProtKB Q9Y336; assay: Binding affinity to recombinant human Fc-fused siglec-9 by fluorescence based glycan microarray analysis
Sequence (Q9Y336 whole entry, the tested form may be a part): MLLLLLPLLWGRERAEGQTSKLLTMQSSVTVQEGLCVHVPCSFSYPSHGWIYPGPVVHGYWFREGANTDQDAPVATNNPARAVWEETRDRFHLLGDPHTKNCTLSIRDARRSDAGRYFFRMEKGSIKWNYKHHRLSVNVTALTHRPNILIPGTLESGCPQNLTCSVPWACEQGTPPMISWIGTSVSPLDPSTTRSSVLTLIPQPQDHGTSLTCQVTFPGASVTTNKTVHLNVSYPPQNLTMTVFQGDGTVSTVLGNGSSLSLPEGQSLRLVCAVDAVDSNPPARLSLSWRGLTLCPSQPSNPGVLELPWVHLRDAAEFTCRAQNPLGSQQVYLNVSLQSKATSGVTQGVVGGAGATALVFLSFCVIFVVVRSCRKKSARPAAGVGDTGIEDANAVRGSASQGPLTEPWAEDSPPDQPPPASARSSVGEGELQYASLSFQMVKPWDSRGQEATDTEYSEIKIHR
Active and inactive are the calls of the source. The rule behind the calls is not given here.
measurement.label: Activity

CC(=O)N[C@H]1[C@H](OCCCCCCN=[N+]=[N-])O[C@H](CO)[C@@H](O[C@@H]2O[C@H](CO[C@]3(C(=O)O)C[C@H](O)[C@@H](NC(C)=O)[C@H]([C@H](O)[C@H](O)CO)O3)[C@H](O)[C@H](O[C@]3(C(=O)O)C[C@H](O)[C@@H](NC(C)=O)[C@H]([C@H](O)[C@H](O)CO)O3)[C@H]2O)[C@@H]1O :: Active
CC(=O)N[C@H]1[C@H](OCCCCCCN=[N+]=[N-])O[C@H](CO)[C@@H](O[C@@H]2O[C@H](CO)[C@H](O)[C@H](O[C@]3(C(=O)O)C[C@H](O)[C@@H](NC(C)=O)[C@H]([C@H](O)[C@H](O)CO)O3)[C@H]2O)[C@@H]1O :: Active
CC(=O)N[C@H]1[C@H]([C@H](O)[C@H](O)CO)O[C@@](O[C@H]2[C@@H](O)[C@@H](CO)O[C@@H](O[C@H]3[C@H](O)[C@@H](O)[C@H](OCCCCCCN=[N+]=[N-])O[C@@H]3CO)[C@@H]2O)(C(=O)O)C[C@@H]1O :: Active
CC(=O)N[C@H]1[C@H](OCCCCCCN=[N+]=[N-])O[C@H](CO)[C@@H](O[C@@H]2O[C@H](CO)[C@H](O)[C@H](O[C@@H]3O[C@H](CO)[C@@H](O)[C@@H](O[C@@H]4O[C@H](CO)[C@H](O)[C@H](O[C@@H]5O[C@H](CO)[C@@H](O)[C@@H](O[C@@H]6O[C@H](CO[C@]7(C(=O)O)C[C@H](O)[C@@H](NC(C)=O)[C@H]([C@H](O)[C@H](O)CO)O7)[C@H](O)[C@H](O)[C@H]6O)[C@H]5NC(C)=O)[C@H]4O)[C@H]3NC(C)=O)[C@H]2O)[C@@H]1O :: Active
CC(=O)N[C@H]1[C@H]([C@H](O)[C@H](O)CO)O[C@@](OC[C@H]2O[C@@H](O[C@H]3[C@H](O)[C@@H](O)[C@H](OCCCCCCN=[N+]=[N-])O[C@@H]3CO)[C@H](O)[C@@H](O)[C@H]2O)(C(=O)O)C[C@@H]1O :: Active
CC(=O)N[C@H]1[C@H](OCCCCCCN=[N+]=[N-])O[C@H](CO)[C@@H](O[C@@H]2O[C@H](CO)[C@H](O)[C@H](O[C@]3(C(=O)O)C[C@H](O)[C@@H](NC(C)=O)[C@H]([C@H](O)[C@H](O)CO)O3)[C@H]2O)[C@@H]1O[C@@H]1O[C@@H](C)[C@@H](O)[C@@H](O)[C@@H]1O :: Active
CC(=O)N[C@H]1[C@H](OCCCCCCN=[N+]=[N-])O[C@H](CO)[C@@H](O[C@@H]2O[C@H](CO[C@]3(C(=O)O)C[C@H](O)[C@@H](NC(C)=O)[C@H]([C@H](O)[C@H](O)CO)O3)[C@H](O)[C@H](O[C@@H]3O[C@H](CO)[C@@H](O)[C@H](O)[C@H]3NC(C)=O)[C@H]2O)[C@@H]1O :: Active
CC(=O)N[C@H]1[C@H](OCCCCCCN=[N+]=[N-])O[C@H](CO)[C@@H](O[C@@H]2O[C@H](CO)[C@H](O)[C@H](O[C@@H]3O[C@H](CO)[C@@H](O)[C@@H](O[C@@H]4O[C@H](CO[C@]5(C(=O)O)C[C@H](O)[C@@H](NC(C)=O)[C@H]([C@H](O)[C@H](O)CO)O5)[C@H](O)[C@H](O)[C@H]4O)[C@H]3NC(C)=O)[C@H]2O)[C@@H]1O :: Active
